Test system: H3K4me2 in HCT116 cells
assayProtocol: Histone methylation H3K4me2 by western blot
Format: cell-based, human
settings: HCT116, 0.1–10 μM, 24 hours, H3K4me2 antibody
recordedEndpoint: H3K4me2 abundance

INSERT INTO measurements (molecule, recordedendpoint, endpointresult) VALUES
  ('C/C(=N\NC(=O)c1cccc(S(=O)(=O)N2CCOCC2)c1)c1cc(OCCOCCC(=O)NCCNc2cccc3c2C(=O)N(C2CCC(=O)NC2=O)C3=O)ccc1O (stereo not drawn)', 'H3K4me2 abundance', 'no increase in H3K4me2'),
  ('C/C(=N\NC(=O)c1cccc(S(=O)(=O)N2CCOCC2)c1)c1cc(OCCCCCCCC(=O)N[C@H](C(=O)N2C[C@H](O)C[C@H]2C(=O)NCc2ccc(-c3scnc3C)cc2)C(C)(C)C)ccc1O', 'H3K4me2 abundance', 'no increase in H3K4me2'),
  ('C/C(=N\NC(=O)c1cccc(S(=O)(=O)N2CCOCC2)c1)c1cc(OCCCC(=O)N[C@H](C(=O)N2C[C@H](O)C[C@H]2C(=O)NCc2ccc(-c3scnc3C)cc2)C(C)(C)C)ccc1O', 'H3K4me2 abundance', 'no increase in H3K4me2');
